methodSummary: small-molecule microarray binders of probe aNog, primary screen, biochemical, biotinylated probe, 635/667 nm fluorescence (AID 1115);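 note: probe is biotinylated aNog protein used at 0.15 µg/mL for 1 h at 4 C; z-score combines 667 nm fluorescence of each spot with its signal to noise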
testParameters: higher = more signal
Lab note: anything with composite z-score at or over -0.06 counts as Fulfilled; the rest go in Not fulfilled.

Here are 5 molecules together with their reported answers.
N#Cc1ccc(NN2C(C(O)CCc3ccccc3)C=CC3C(=O)N(c4ccccc4)C(=O)C32)cc1 (stereo not given) :: Not fulfilled
Cc1cc(C)c(C(O)C2C=CC3C(=O)N(C)C(=O)C3N2N2CCCCC2)c(C)c1 (stereo not given) :: Fulfilled
CO[C@H]1COC(=O)[C@H](C)COC(=O)[C@H](Cc2ccccc2)NC(=O)CC=C[C@H]1C :: Fulfilled
CO[C@@H]1COC(=O)[C@H](C)NC(=O)CC=C[C@@H](C)[C@H](NS(=O)(=O)c2ccc(C)cc2)COC(=O)CC=C[C@@H]1C :: Not fulfilled
CO[C@H]1COC(=O)[C@@H](C)NC(=O)CC=C[C@@H](C)[C@H](OC)COC(=O)CC=C[C@@H]1C :: Not fulfilled

-- ask Is reported composite z-score greater than or equal to -0.06 here: C=CCOC(=O)[C@@H]1[C@H]2C(=O)O[C@H](c3ccccc3)[C@H](c3ccccc3)N2[C@H](c2ccc(OCCOC(=O)[C@H]3C[C@H]4C(=O)N[C@@H](CCCCNC(C)=O)C(=O)N4[C@H]3c3ccc(O)cc3)cc2)[C@@]12C(=O)Nc1ccc(I)cc12
-- reply Fulfilled

-- ask Is reported composite z-score greater than or equal to -0.06 here: COc1cc([C@@H]2N[C@H](C(=O)O)Cc3c2[nH]c2ccccc32)cc(OC)c1OC
-- reply Fulfilled

-- ask Is reported composite z-score greater than or equal to -0.06 here: Cc1ccc(S(=O)(=O)N2[C@@H](c3ccccc3)C(C(=O)O)=CC[C@H]2c2ccccc2)cc1
-- reply Fulfilled

-- ask Is reported composite z-score greater than or equal to -0.06 here: NC(=O)NCC#Cc1ccc2c(c1)[C@]1(C(=O)N2)[C@H](C(=O)N2CCCCCCC2)[C@H]2C(=O)O[C@H](c3ccccc3)[C@H](c3ccccc3)N2[C@@H]1c1ccccc1OCCO
-- reply Fulfilled

-- ask Is reported composite z-score greater than or equal to -0.06 here: [N-]=[N+]=NCc1ccccc1C[C@@]1(C(=O)N2CCOCC2)N=C(c2ccc(OCCCO)cc2)O[C@@H]1c1ccccc1N=[N+]=[N-]
-- reply Fulfilled

-- ask Is reported composite z-score greater than or equal to -0.06 here: O=C(NCC(O)CO)[C@]1(Cc2ccccc2)N=C(c2ccc(OCCCO)cc2)O[C@@H]1c1ccccc1 (stereo not given in full)
-- reply Fulfilled

-- ask Is reported composite z-score greater than or equal to -0.06 here: C=C(COC)/C(=C/C[C@H](OC(C)=O)c1ccc(OCCO)cc1)c1cnc2ccccc2c1
-- reply Fulfilled

-- ask Is reported composite z-score greater than or equal to -0.06 here: COC(=O)C1=C(C)N(Cc2ccccc2)c2c(C(=O)OC)c(C(=O)OC)c(C(=O)OC)c(=O)n2[C@@H]1c1ccccc1
-- reply Fulfilled

-- ask Is reported composite z-score greater than or equal to -0.06 here: CCCCCCc1nc(-c2cc(C)c(OC)c(C)c2)cc2c1[Si](C(C)C)(C(C)C)O[C@H]2c1ccccc1
-- reply Not fulfilled
